Attribution: paper PMC5641942

protocol-notes: Oral taurine pharmacokinetics in rats
Type: in vivo, male Sprague-Dawley rats
experimental-conditions: male, Sprague-Dawley, rat, plasma; oral 30 mg/kg; read-out: AUC0‐tlast (converted)
endpoint-name: AUC

Form field: reported AUC of `NCCS(=O)(=O)O` 18600 ng·h/mL
